The measurements presented in this section are drawn from patent US20140348834A1.

Molecular target: human IL-17A (human, UniProt Q16552 24-155)
Sequence (Q16552 24-155 limits assumed): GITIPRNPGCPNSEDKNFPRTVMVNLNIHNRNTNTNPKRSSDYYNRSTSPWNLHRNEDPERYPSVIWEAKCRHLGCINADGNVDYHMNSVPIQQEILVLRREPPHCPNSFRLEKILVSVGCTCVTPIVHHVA
Experiment: cell-based or functional assay
# Potency (pM), IL-17-driven IL-6 production in HS27 cells listing for each entry below
Write the value in pM as a bare number.

Solved entries:
[
  {
    "binder": "IL17-B6-16 (antibody, V domains shown, also called pJP247 B6.1 #16VH / pJP248 B6.1 #16Vk) VH: EVQLVQSGAEVKMPGSSLKISCKASGGSFRGYGISWVRQAPGQGLEWMGGITPFFGWADYAQKFQGRVTITADESTTTAYMELSGLTSDDTAVYYCARDPNEFWNGYYDTHHFDYWGQGTTVTVSS VL: EIVLTQSPDFQSVTPKEKVTITCRASQDIGSALHWYQQKPDQSPKLLIKYASHSVSGVPSRFSGSGSGTDFTLTINGLEAEDAGTYYCHQSDILPHTFGPGTKVDIK",
    "unitSpec": "pM",
    "observedResult": 26
  },
  {
    "binder": "IL17-G9-M1 (antibody, V domains shown) VH: EVQLLESGGGVVQPGRSLRLSCAASGFIFSNYGMHWVRQAPGKGLEWVAVISYDGGYKYYADSVKGRFTISRDNSKNTLYLEMNSLRPEDTAVYYCAKLSLSGDYYYSYGFDGWGQGTTVTVSS VL: QSVLTQPPSASGTPGQTVSISCSGSKSNIGSHYVHWYQQVPGAAPKLLMYDFGQRPSGVPDRFSGSQSGTSASLAISGLQSEDEADYYCGTWDDWLGGYVFGTGTKVTVLG",
    "unitSpec": "pM",
    "observedResult": 88
  }
]

Next item in the queue.
Lookup result for IL17-G9-5 (antibody, V domains shown) VH: EVQLLESGGGVVQPGRSLRLSCAASGFIFRNYGMHWVRQAPGKGLEWVAVIAYDGSRQYYSDSVKGRFTISRDNSKNTLYLEMNSLRPEDTAVYYCAKVGASGDYYYSYGLDLWGQGTTVTVSS VL: QSVLTQPPSASGTPGQTVSISCSGRQSNIGRHYVDWYQQVPGAAPKLLMYYDSIRPSGVPDRFSGSQSGTSASLAISGLQSEDEADYYCGMWDDSLAGYVFGSGTKVTVLG ; measured Potency (pM), IL-17-driven IL-6 production in HS27 cells: 310
